B1: Gamma-crystallin C, residues 91 to 170; numbered along this chain, P07315 (parent)
chain: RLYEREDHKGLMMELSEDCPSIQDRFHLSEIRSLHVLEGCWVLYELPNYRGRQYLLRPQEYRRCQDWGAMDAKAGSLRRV

variants of: B1; test: abundance fitness (aPCA) (normalised: wild type 0, dead -1); higher = more abundant; growth selection in yeast, the domain comes from the species named; conditions: Homo sapiens
Returns one of true or false; true when abundance fitness is >= -0.4.

MUTANT_ID	GROUP_LABEL
L37H	true

INPUT: Decide: is the reported value of abundance fitness for `D24Q` equal to or greater than -0.4?
OUTPUT: true

INPUT: In plain terms: is recorded abundance fitness at least -0.4 for `S29C` ?
OUTPUT: true

INPUT: Has `R62F` a recorded abundance fitness greater than or equal to -0.4?
OUTPUT: true
